# experimental-system: NCAP (SARS-CoV-2, UniProt P0DTC9)
# assay-info: EMSA
The entries below come with measured Kd values attached.

binder	Kd (nM)
F257 (structured_RNA) RNA: GGUCGUUGACAGGACACGAGUAACUCGUCUAUCUUCUGCAGGCUGCUUACGGUUUCGUCCGUGUUGCAGCCGAUCAUCAGCACAUCUAGGUUUCGUCCGGGUGUGACCGAAAGGUAAGAUGGAGAGCCUUGUCCCUGGUUUCAACGAGAAAACACACGUCCAACUCAGUUUGCCUGUUUUACAGGUUCGCGACGUGCUCGUACGUGGCUUUGGAGACUCCGUGGAGGAGGUCUUAUCAGAGGCACGUCAACAUCUUAAA	23
S2hp (structured_RNA) RNA: GGCUGUGUGGCUGUCACUCGGCUGCAUGCUUAGUGCACUCACGCAGUAUAAUUAAUAACUAAUUACUGUCGUUGACAGGACACGAGUAACUCGUCUAUCUUCUGCAGGCUGCUUACGGUUUCGUCCGUGUUGCAGCCGAUCAUCAGCACAUCUAGGUUUCGUCCGGGUGUGACCGAAAGGUAAGAUGGAGAGCCUUGUCCCUGGUUUCAACGA	173
SL5 (structured_RNA) RNA: GGUCGUUGACAGGACACGAGUAACUCGUCUAUCUUCUGCAGGCUGCUUACGGUUUCGUCCGUGUUGCAGCCGAUCAUCAGCACAUCUAGGUUUCGUCCGGGUGUGACCGAAAGGUAAGAUGGAGAGCCUUGUCCCUGGUUUCAACGA	166
UAUAAUUAAUAACUAAUUACUG (ssRNA) [S2]	216
